Source: paper PMC10247153

TARGET: T1, PHD1 (KDM5C residues 318–378) (human, UniProt P41229-1 318-378)
T1 chain: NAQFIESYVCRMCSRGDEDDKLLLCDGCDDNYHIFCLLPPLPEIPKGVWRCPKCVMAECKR
ASSAY PROCEDURE: NMR; from I361
No end group written: not given here.
MEASURE NAME: Kd (µM)
Use µM as the unit, but write only the number.

## Input Fill in: Kd of ARTK(Me)QTARKSTGGKAPRK [H3K4me1 (1–18) peptide] is ___
## Output 313
